- assayed_system: Ionotropic glutamate receptor NMDA 1/2D (Rattus norvegicus) (UniProt P35439+Q62645)
- assay_name: Negative allosteric modulation of recombinant rat GluN1/GluN2D expressed in Xenopus laevis oocytes assessed as inhibition of glutamate/glycine-induced current response at 30 uM at -40 mV holding potential by two-electrode voltage clamp method relative to glutamate/glycine
- Type: cell-based
- test_context: values are per cent of control
reported_endpoint: residual activity

Here's what some known entries look like.
INSERT INTO measurements (smiles_data, reported_endpoint, result) VALUES
  ('CCN(CC)C(=O)Oc1ccc(C(=O)Nc2ccc(CNS(=O)(=O)c3cccnc3)cc2)cc1', 'residual activity', '45%'),
  ('CCN(CC)C(=O)Oc1ccc(C(=O)Nc2ccc(CCNS(=O)(=O)c3cccnc3)cc2)cc1', 'residual activity', '26%'),
  ('O=C(NNC(=O)c1ccc(CNS(=O)(=O)c2ccc(F)c(Cl)c2)cc1)c1ccccc1', 'residual activity', '< 15%'),
  ('CCN(CC)C(=O)Oc1ccc(C(=O)Nc2cccc(CCNS(=O)(=O)c3ccccc3)c2)cc1', 'residual activity', '8.9 to 9%'),
  ('CCN(CC)C(=O)Oc1ccc(C(=O)Nc2cccc(CNS(=O)(=O)c3ccccc3)c2)cc1', 'residual activity', '46%');

Q: I am curious: what residual activity value has been reported for `CCN(CC)C(=O)Oc1ccc(C(=O)Nc2ccc(CNS(=O)(=O)c3ccccc3)cc2)cc1` ?
Result: 20%

Q: Note, next up: `CCN(CC)C(=O)Oc1ccc(C(=O)Nc2cccc(CNS(=O)(=O)c3cccnc3)c2)cc1`
Result: 42%

Q: Note, next up: `CCN(CC)C(=O)Oc1ccc(C(=O)Nc2cccc(CCNC(=O)c3ccccc3)c2)cc1`
Result: 49%

Q: Note, next up: `CCN(CC)C(=O)Oc1ccc(C(=O)Nc2cccc(CCNS(=O)(=O)c3cccnc3)c2)cc1`
Result: 8.6%

Q: Note, next up: `CCN(CC)C(=O)Oc1ccc(C(=O)Nc2cccc(CCNS(=O)(=O)c3ccc(F)c(Cl)c3)c2)cc1`
Result: 28%
